Some binders, each annotated with its measured Kd.
# Tested on: T1, Escherichia coli FtsZ protein (E. coli, UniProt P0A9A6 1-383)
# T1 construct: also called recombinant FtsZ; source: E. coli BL21, overexpressed and purified as described previously [7]
# T1 sequence (looked up): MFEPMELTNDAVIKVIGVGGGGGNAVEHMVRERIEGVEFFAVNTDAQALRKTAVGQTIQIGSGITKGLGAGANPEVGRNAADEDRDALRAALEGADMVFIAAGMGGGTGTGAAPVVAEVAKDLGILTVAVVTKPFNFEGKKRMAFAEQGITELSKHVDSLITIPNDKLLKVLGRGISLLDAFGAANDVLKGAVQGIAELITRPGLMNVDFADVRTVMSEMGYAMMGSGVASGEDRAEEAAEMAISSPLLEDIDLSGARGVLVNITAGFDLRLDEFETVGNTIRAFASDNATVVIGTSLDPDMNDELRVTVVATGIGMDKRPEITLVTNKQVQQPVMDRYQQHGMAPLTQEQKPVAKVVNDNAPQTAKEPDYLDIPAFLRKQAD
# Assay procedure: other fluorescence titration; intrinsic fluorescence of FtsZ (12 µM), excitation 280 nm, emission 347 nm, 20 °C, peptide from 1 to 180 µM, fitted to 'one site-specific binding', duplicate
# Experimental conditions: both partners purified
Only the number, expressed in µM, is required.

>>> numeric_result("FVKWFKKFLTRIL (Temporin-L with Q3K, S6K and G10T; Designed from the docking model of FtsZ with TL) [TRIL (Temporin-L analogue)]")
21.4

Proceed to the following item.
Per the records, this binder ( FVQWFSKFLGRIL (Temporin-L, amphibian antimicrobial peptide, 13 residues; also called TL; native TL) [Native Temporin L] ) has Kd equal to 11
